The reader will find reported binding signal values listed item by item below.
# target desc: GST-Co-NF-kB (Capsaspora owczarzaki, UniProt F1ARL5 200-546)
# Sequence: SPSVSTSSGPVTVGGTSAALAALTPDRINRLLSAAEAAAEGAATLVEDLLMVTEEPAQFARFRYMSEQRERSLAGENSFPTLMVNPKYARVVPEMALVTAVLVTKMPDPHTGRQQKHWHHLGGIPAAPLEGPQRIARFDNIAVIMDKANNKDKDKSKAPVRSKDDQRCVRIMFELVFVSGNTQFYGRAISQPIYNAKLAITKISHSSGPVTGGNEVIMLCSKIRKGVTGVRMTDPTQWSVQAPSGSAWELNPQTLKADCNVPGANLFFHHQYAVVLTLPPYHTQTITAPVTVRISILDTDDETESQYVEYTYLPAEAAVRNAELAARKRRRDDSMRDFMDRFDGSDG
# protocol description: protein-binding microarray (PBM); PBM: ~300 nM protein, 6 mM HEPES pH 7.8, 80 mM KCl, 0.5 mM EDTA, 0.5 mM EGTA, 6% glycerol, 35 ng/ul poly-dIdC, 1% milk, 1 h, room temperature; high values mean tight binding
# test parameters: dsDNA, one strand shown
readout name: binding signal

{"residues": "CCGATTAACATCAGCTATTTCCCTGATGTTAATCGGGTCTTGATTCGCTTGACGCTGCTG", "readout name": "binding signal", "result": "2.17 z-score"}
{"residues": "CCGATTAACATCAGGGACTACCCTGATGTTAATCGGGTCTTGATTCGCTTGACGCTGCTG", "readout name": "binding signal", "result": "1.8 z-score"}
{"residues": "CCGATTAACATCAATAATTTCCCTGATGTTAATCGGGTCTTGATTCGCTTGACGCTGCTG", "readout name": "binding signal", "result": "4.82 z-score"}
{"residues": "CCGATTAACATCAATCCCCACATTGATGTTAATCGGGTCTTGATTCGCTTGACGCTGCTG", "readout name": "binding signal", "result": "2.61 z-score"}
{"residues": "CCGATTAACATCAGGGAAAGCACTGATGTTAATCGGGTCTTGATTCGCTTGACGCTGCTG", "readout name": "binding signal", "result": "2.69 z-score"}

====

# target desc: GST-Hu-p50 (Homo sapiens, UniProt P19838 7-356)
# Sequence (P19838 7-356): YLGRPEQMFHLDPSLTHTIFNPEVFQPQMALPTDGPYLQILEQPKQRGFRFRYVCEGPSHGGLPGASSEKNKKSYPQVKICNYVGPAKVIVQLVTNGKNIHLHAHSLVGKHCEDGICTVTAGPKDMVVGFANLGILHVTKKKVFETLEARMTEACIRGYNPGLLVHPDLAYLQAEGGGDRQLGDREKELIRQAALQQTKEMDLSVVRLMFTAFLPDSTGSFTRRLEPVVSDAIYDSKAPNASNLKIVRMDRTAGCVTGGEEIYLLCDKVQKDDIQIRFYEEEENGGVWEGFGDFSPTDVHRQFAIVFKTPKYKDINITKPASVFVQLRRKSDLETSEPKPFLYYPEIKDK
# protocol description: protein-binding microarray (PBM); PBM: ~300 nM protein, 6 mM HEPES pH 7.8, 80 mM KCl, 0.5 mM EDTA, 0.5 mM EGTA, 6% glycerol, 35 ng/ul poly-dIdC, 1% milk, 1 h, room temperature; Ap Aiptasia and Nv Nematostella (sea anemones) / Co Capsaspora / Aq Amphimedon (sponge) / Dm Drosophila / Hu human; RHD is the Rel homology domain; high values mean tight binding
# test parameters: dsDNA, one strand shown

{"residues": "CCGATTAACATCAGAAAAATTCCTGATGTTAATCGGGTCTTGATTCGCTTGACGCTGCTG", "binding signal / z-score": 1.71}
{"residues": "CCGATTAACATCACCTAACTTGATGATGTTAATCGGGTCTTGATTCGCTTGACGCTGCTG", "binding signal / z-score": 1.66}
{"residues": "CCGATTAACATCAAAAAGTTTCCTGATGTTAATCGGGTCTTGATTCGCTTGACGCTGCTG", "binding signal / z-score": 1.42}
{"residues": "CCGATTAACATCAAAAATACCCATGATGTTAATCGGGTCTTGATTCGCTTGACGCTGCTG", "binding signal / z-score": 5.58}
{"residues": "CCGATTAACATCAGGGAGTTTTATGATGTTAATCGGGTCTTGATTCGCTTGACGCTGCTG", "binding signal / z-score": 5.8}
{"residues": "CCGATTAACATCAGGGGATTTTATGATGTTAATCGGGTCTTGATTCGCTTGACGCTGCTG", "binding signal / z-score": 8.09}
{"residues": "CCGATTAACATCAGGGATTTCACTGATGTTAATCGGGTCTTGATTCGCTTGACGCTGCTG", "binding signal / z-score": 2.38}
{"residues": "CCGATTAACATCAAAAAATTTCCTGATGTTAATCGGGTCTTGATTCGCTTGACGCTGCTG", "binding signal / z-score": 2.27}
{"residues": "CCGATTAACATCAAACTTCCCCCTGATGTTAATCGGGTCTTGATTCGCTTGACGCTGCTG", "binding signal / z-score": 6.72}
{"residues": "CCGATTAACATCAGGGGGAACACTGATGTTAATCGGGTCTTGATTCGCTTGACGCTGCTG", "binding signal / z-score": 5.28}
{"residues": "CCGATTAACATCAGGAAGCTCCCTGATGTTAATCGGGTCTTGATTCGCTTGACGCTGCTG", "binding signal / z-score": 1.33}
{"residues": "CCGATTAACATCAAATTTACCCCTGATGTTAATCGGGTCTTGATTCGCTTGACGCTGCTG", "binding signal / z-score": 4.09}
{"residues": "CCGATTAACATCAGGGAATTCCCTGATGTTAATCGGGTCTTGATTCGCTTGACGCTGCTG", "binding signal / z-score": 7.9}
{"residues": "CCGATTAACATCAGGGAACACCCTGATGTTAATCGGGTCTTGATTCGCTTGACGCTGCTG", "binding signal / z-score": 3.05}
{"residues": "CCGATTAACATCAAAAAACTCCCTGATGTTAATCGGGTCTTGATTCGCTTGACGCTGCTG", "binding signal / z-score": 5.69}
{"residues": "CCGATTAACATCACAAAAAATCCTGATGTTAATCGGGTCTTGATTCGCTTGACGCTGCTG", "binding signal / z-score": 1.98}
{"residues": "CCGATTAACATCAATTCCCCCCATGATGTTAATCGGGTCTTGATTCGCTTGACGCTGCTG", "binding signal / z-score": 6.18}
{"residues": "CCGATTAACATCAAAGATTCCCCTGATGTTAATCGGGTCTTGATTCGCTTGACGCTGCTG", "binding signal / z-score": 6.66}
{"residues": "CCGATTAACATCACCCATTTCCCTGATGTTAATCGGGTCTTGATTCGCTTGACGCTGCTG", "binding signal / z-score": 2.57}
{"residues": "CCGATTAACATCAAGGGGTTTCCTGATGTTAATCGGGTCTTGATTCGCTTGACGCTGCTG", "binding signal / z-score": 5.36}
{"residues": "CCGATTAACATCACGGAAATCCCTGATGTTAATCGGGTCTTGATTCGCTTGACGCTGCTG", "binding signal / z-score": 3.58}
{"residues": "CCGATTAACATCAGGGCTTCCCCTGATGTTAATCGGGTCTTGATTCGCTTGACGCTGCTG", "binding signal / z-score": 6.74}
{"residues": "CCGATTAACATCAAGGGGATTTATGATGTTAATCGGGTCTTGATTCGCTTGACGCTGCTG", "binding signal / z-score": 7.34}
{"residues": "CCGATTAACATCAAATTCCCGGGTGATGTTAATCGGGTCTTGATTCGCTTGACGCTGCTG", "binding signal / z-score": 3.85}
{"residues": "CCGATTAACATCAAAAATCCCAATGATGTTAATCGGGTCTTGATTCGCTTGACGCTGCTG", "binding signal / z-score": 3.32}
{"residues": "CCGATTAACATCACCGTGGGAAATGATGTTAATCGGGTCTTGATTCGCTTGACGCTGCTG", "binding signal / z-score": 2.29}
{"residues": "CCGATTAACATCAATTCCCAAAATGATGTTAATCGGGTCTTGATTCGCTTGACGCTGCTG", "binding signal / z-score": 1.25}
{"residues": "CCGATTAACATCAAAAAGCCCCCTGATGTTAATCGGGTCTTGATTCGCTTGACGCTGCTG", "binding signal / z-score": 7.23}
{"residues": "CCGATTAACATCAGGGGACTACCTGATGTTAATCGGGTCTTGATTCGCTTGACGCTGCTG", "binding signal / z-score": 4.79}
{"residues": "CCGATTAACATCAGCAATTCCCCTGATGTTAATCGGGTCTTGATTCGCTTGACGCTGCTG", "binding signal / z-score": 6.4}
{"residues": "CCGATTAACATCAGAACTTCCCCTGATGTTAATCGGGTCTTGATTCGCTTGACGCTGCTG", "binding signal / z-score": 6.4}
{"residues": "CCGATTAACATCAAGGGGGGAATTGATGTTAATCGGGTCTTGATTCGCTTGACGCTGCTG", "binding signal / z-score": 6.3}
{"residues": "CCGATTAACATCAGGACATACCCTGATGTTAATCGGGTCTTGATTCGCTTGACGCTGCTG", "binding signal / z-score": 1.78}
{"residues": "CCGATTAACATCAAGGGGAATTATGATGTTAATCGGGTCTTGATTCGCTTGACGCTGCTG", "binding signal / z-score": 7.43}
{"residues": "CCGATTAACATCAGACCCCCCCCTGATGTTAATCGGGTCTTGATTCGCTTGACGCTGCTG", "binding signal / z-score": 4.03}
{"residues": "CCGATTAACATCAGGGGATTATATGATGTTAATCGGGTCTTGATTCGCTTGACGCTGCTG", "binding signal / z-score": 6.4}
